Recorded measurements of CC50 at 3 days, one per entry
- MEASUREMENT_DESCRIPTION: Cytotoxicity in HeLa cells, ATP content measured with the ATPlite kit
- Format: cell-based
- SETUP_CONDITIONS: human, TOX HELA pCC50

Please give the measured CC50 at 3 days for this compound: CCc1cc(C(=O)N2CCCCCN2C)nc2cc(-c3ccc(C4C[C@H]4C(=O)O)cc3F)nn12 (mixture of isomers) [Compound O12] > 100 µM

Please give the measured CC50 at 3 days for this compound: CCc1cc(C(=O)N2CCCCCC2C)nc2cc(-c3ccc(NC(=O)CC4CCCCN(C)C4=O)cc3)nn12 (stereo not drawn) [Compound E9] > 25.1 µM

Please give the measured CC50 at 3 days for this compound: C[C@@H]1CCCCCN1C(=O)c1cc(C2(C)CC2)n2nc(-c3ccc(-c4ccc(C(=O)O)cn4)cc3F)cc2n1 [Compound F31] 32.4 µM

Please give the measured CC50 at 3 days for this compound: CCc1cc(C(=O)N2CCCCCC2C)nc2cc(-c3ccc4[nH]cnc4c3)nn12 (stereo not drawn) [Compound A13] > 25.1 µM

Please give the measured CC50 at 3 days for this compound: C[C@@H]1c2ccccc2CCN1C(=O)c1cc(C2CC2)n2nc(-c3ccc(C4C[C@H]4C(=O)O)cc3F)cc2n1 (single isomer, unassigned) [Compound O5] 55 µM

Please give the measured CC50 at 3 days for this compound: CCc1cc(C(=O)N2CCCCC[C@H]2C)nc2cc(-c3ccc([C@@H]4C[C@@H]4C(=O)O)cc3F)nn12 (racemic) [Compound O16] > 100 µM

Please give the measured CC50 at 3 days for this compound: CCc1cc(C(=O)N2CCCCCC2C)nc2cc(-c3ccc(B(O)O)cc3F)nn12 (stereo not drawn) [Compound G1] > 25.1 µM

Please give the measured CC50 at 3 days for this compound: CCc1cc(C(=O)N2CCCCCN2C)nc2cc(-c3ccc(-n4cc(C(=O)O)cn4)cc3F)nn12 [Compound W32] > 100 µM

The reported numbers originate from patent US11084826B2.
